All figures here come from patent US5330992A.

I'd appreciate it if you could supply MTD values for the items below.
Assay: In vivo antitumor assay, Colo38(sc)
Parameters: species or system mouse
Settings: mouse, in vivo, drug route iv, Ex 26 qd 3-5 bid 6-11, Ex 30 and 33 qd 3-11
Your answer is read as mg/kg, so omit the unit and give the number.

(Q) Consider the molecule Cc1cc(-c2c(F)cc3c(=O)c(Cc4ccccc4O)cn(C4CC4)c3c2F)cc(C)n1 . State its measured MTD.
(A) 148

(Q) Consider the molecule Cc1cc(-c2c(F)cc3c(=O)c(Cc4ccc(O)cc4O)cn(C4CC4)c3c2F)cc(C)n1 and give its recorded MTD.
(A) 33

(Q) State, in one line, measured MTD of Cc1cc(-c2c(F)cc3c(=O)c(Cc4c(O)cccc4O)cn(C4CC4)c3c2F)cc(C)n1
(A) 30
